These measurements were taken from PubChem BioAssay AID1508591.

experimental.setup: rat; liver microsomes; pH 7.4; 15.0 min; 1.0 µM
parameter: half-life

Known results for compounds:
CCCCCCCc1c(C)nc(N2CCOCC2)[nH]c1=O	3.5 min
O=C(Nc1ccc(Cl)c(S(=O)(=O)N2CCOCC2)c1)c1ccc(S(=O)(=O)N2CCOCC2)cc1	6.4 min
COc1cccc(CC(=O)Nc2nc(-c3ccc4c(c3)CCN4C(=O)c3ccccc3C)c(C)s2)c1	19 min
Cc1cccc(-c2[nH]c(C(C)(C)C)nc2-c2ccc3nccnc3c2)n1	> 30 min
CN(Cc1cccs1)c1ncnc2ccc(-c3ccc4c(c3)OCO4)cc12	1.44 min

Q: Requested field: half-life. Item: NC(=O)c1ccc(-c2nc3c([nH]2)CN(C(=O)CN2CCOCC2)CC3)cc1
A: > 30 min

Q: Requested field: half-life. Item: O=[N+]([O-])c1ccc(CNc2ccc([S+](=O)([O-])Nc3nccs3)cc2)c(O)c1
A: 13 min

Q: Requested field: half-life. Item: COCCNC(=O)c1ccc(-c2ccc(N3CCCCC3)nc2)cc1
A: 3.26 min

Q: Requested field: half-life. Item: Cc1nnn(C)c1-c1cnc2c3ccc(C(C)(C)O)cc3n([C@H](c3ccccc3)C3CCOCC3)c2c1
A: > 30 min

Q: Requested field: half-life. Item: Cc1cc(-c2ccc(C)c(S(=O)(=O)NCC3CCN(Cc4ccc(F)cc4)CC3)c2)on1
A: 5.49 min

====

experimental.setup: rat; liver microsomes; pH 7.4; 15.0 min; 1.0 µM
parameter: half-life

O=C1CCCC2=C1C1(CCSC1)N=C(Nc1nc3ccccc3o1)N2 (configuration not stated)	2.5 min
CNc1sc(-c2cccc3ccccc23)nc1C#N	12.9 min
O=C(c1nc(-c2ccc(Cl)cc2Cl)c2cnccn12)N1CCOCC1	23.6 min
Fc1ccc(Nc2nc(-n3ccnc3)nc3ccccc23)cc1F	> 30 min

Now look at this entry.
Q: Requested field: half-life. Item: Nc1ccccc1CNc1ccc(S(=O)(=O)Nc2nccs2)cc1
A: > 30 min

====

experimental.setup: rat; liver microsomes; pH 7.4; 15.0 min; 1.0 µM
parameter: half-life (min)
Note: unit min is implicit; provide only the numeric part.

Known results for compounds:
CCc1cc(Cl)c(OC)c(C(=O)NC[C@@H]2CCCN2CC)c1O	1.71
NC(=O)C1CCN(c2nc(-c3ccc(OCc4ccccc4)cc3)cs2)CC1	18.3
Cc1c(C(=O)NN2CCCCC2)nn(-c2ccc(Cl)cc2Cl)c1-c1ccc(Cl)cc1	5.9
CC1CCN(C(=O)c2ccc(-c3ccc(N4CCSCC4)nc3)cc2)CC1	1.52

Now look at this entry.
Q: Requested field: half-life. Item: COc1ccc(NS(=O)(=O)c2ccc(C)cc2)cc1C(=O)Nc1nc(-c2ccccc2)cs1
A: 12

====

experimental.setup: rat; liver microsomes; pH 7.4; 15.0 min; 1.0 µM
parameter: half-life (min)
Note: unit min is implicit; provide only the numeric part.

O=C(Nc1nc(-c2ccccc2)cs1)c1ccncc1NS(=O)(=O)c1ccccc1F	7

Now look at this entry.
Q: Requested field: half-life. Item: CN(C)c1cccc(-c2nc(N3CCC(C(N)=O)CC3)ncc2F)c1
A: 1.45

====

Measured half-life by item
experimental.setup: rat; liver microsomes; pH 7.4; 15.0 min; 1.0 µM
Note: unit min is implicit; provide only the numeric part.

Known results for compounds:
Oc1c(CN2CCN(c3ccccn3)CC2)cc(Cl)c2cccnc12	3.23
CCOC(=O)c1ccc(NC2CCCCC2)c(N)c1	2.5
Fc1ccc(Oc2nc(-c3ccncc3)nc3ccccc23)cc1F	15
O=C1CCCC2=C1C1(CCCC1)N=C(Nc1nc3ccccc3o1)N2	2.7

Q: Requested field: half-life. Item: COc1cccc(CNc2ccc(S(=O)(=O)Nc3cccc(-c4ccccc4)c3)cc2)c1O
A: 17

Q: Requested field: half-life. Item: COc1ccccc1C(=O)Nc1nnc(SCc2cc(=O)c3ccccc3[nH]2)s1
A: 7.49

Q: Requested field: half-life. Item: c1ccc2c(Nc3ccn[nH]3)nc(-c3ccncc3)nc2c1
A: 13

Q: Requested field: half-life. Item: CCOc1ccc(CCNC(=O)c2cc3ccccc3n2Cc2cccc(C)c2)cc1OCC
A: 1.6

Q: Requested field: half-life. Item: O=C(Nc1cncc(Cc2ccccc2)c1)c1ccc(-c2cccc([N+](=O)[O-])c2)o1
A: 2.4
